- Tested on: HT29 colon
- procedure_summary: NCI tumour cell line growth inhibition, 48 h

- compound: "C[n+]1c(-c2ccc(/C=N/NC(=O)C(=O)N/N=C/c3ccc(-c4cn5ccsc5[n+]4C)cc3)cc2)cn2ccsc21"
  TGI: "> 100 µM"
- compound: "CC[P+](C)(C)c1ccccc1"
  TGI: "> 100 µM"
- compound: "Cc1cccc2c1N(C(=O)/C=C\\C(=O)O)C(c1c(C)[nH]c3ccccc13)C2 (stereo not given)"
  TGI: "> 100 µM"
- compound: "OCC(O)C(O)C(O)c1nn(-c2ccc(Cl)cc2)c2nc3cc(Cl)c(Cl)cc3nc12 (stereo not given)"
  TGI: "> 100 µM"
- compound: "CNC(=O)N(CCC#N)CCCN(C(=O)NC)c1ccccc1"
  TGI: "> 100 µM"
- compound: "CC(C)=NNC=N/C(C#N)=C(\\N)C#N"
  TGI: "> 100 µM"
- compound: "CC1C[C@H](C)CC(C(O)CC2CC(=O)N(Cc3ccccc3)C(=O)C2)C1O (stereo not given in full)"
  TGI: "> 100 µM"
- compound: "c1cc2c(c(NC3=NCCO3)c1)CCC2"
  TGI: "> 100 µM"
- compound: "Cc1ncc2c(=O)c3c(oc2n1)c1ccccc1n3Cc1ccccc1"
  TGI: "> 100 µM"
- compound: "COc1cc(OC)c2nc(C)c3c(c2c1)NCC3"
  TGI: "15.5 µM"
- compound: "C[C@]12CC[C@H](O)C[C@H]1CC[C@@H]1[C@@H]2CC[C@]2(C)[C@@H](C3=CC(=O)OC3)[C@@H](O)C[C@]12O"
  TGI: "11 µM"
- compound: "CC(C)(C)Nc1noc(=O)n1C(C)(C)C"
  TGI: "> 100 µM"
- compound: "O=C(Nc1ccccc1)N(C1=NCC(CI)S1)c1ccc(F)cc1F (stereo not given)"
  TGI: "> 100 µM"
- compound: "CCN(CC)c1ccc2cc(C(=O)Nc3ccccc3)c(=N)oc2c1"
  TGI: "> 100 µM"
- compound: "NCCN1C(=O)CN=C(c2ccc(Cl)cc2)c2cc(Cl)ccc21"
  TGI: "36 µM"
